# key: entry, value: IC50 of U87 cell proliferation (BrdU)
target: recombinant human HGF (hepatocyte growth factor) (human, UniProt P14210 32-728); experiment: cell-based or functional assay
Sequence (P14210 32-728 limits assumed): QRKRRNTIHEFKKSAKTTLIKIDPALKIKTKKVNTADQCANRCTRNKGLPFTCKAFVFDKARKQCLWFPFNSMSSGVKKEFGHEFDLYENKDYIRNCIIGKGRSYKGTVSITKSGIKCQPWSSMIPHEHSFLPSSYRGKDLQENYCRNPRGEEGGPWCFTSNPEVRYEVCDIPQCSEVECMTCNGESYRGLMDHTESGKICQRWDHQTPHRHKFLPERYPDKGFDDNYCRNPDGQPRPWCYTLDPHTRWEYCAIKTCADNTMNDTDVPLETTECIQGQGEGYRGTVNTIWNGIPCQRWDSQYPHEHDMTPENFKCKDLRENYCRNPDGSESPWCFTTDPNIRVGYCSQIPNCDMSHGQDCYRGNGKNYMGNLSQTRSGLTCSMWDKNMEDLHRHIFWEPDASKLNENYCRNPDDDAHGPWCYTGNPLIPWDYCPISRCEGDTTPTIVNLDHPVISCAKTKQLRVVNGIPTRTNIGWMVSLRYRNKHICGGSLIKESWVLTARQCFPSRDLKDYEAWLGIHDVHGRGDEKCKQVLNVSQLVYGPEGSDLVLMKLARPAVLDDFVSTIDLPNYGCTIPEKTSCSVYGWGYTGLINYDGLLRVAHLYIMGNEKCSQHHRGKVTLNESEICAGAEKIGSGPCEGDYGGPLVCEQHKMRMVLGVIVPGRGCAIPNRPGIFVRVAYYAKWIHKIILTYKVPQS
value type: IC50 of U87 cell proliferation (BrdU) (µM)

>>> observed_measurement("DARPin #59 (designed binder) MRGSHHHHHHGSDLGKKLLEAARAGQDDEVRILMANGADVNADDSLGLTPLHLAAASGHLEIVEVLLKNGADVNAVDQNSFTPLYLAANNGHLEIVEVLLKNGADVNAFDWHGTTPLHLAAMFGHLEIVEVLLKNGADVNAQDKFGKTAFDISIDNGNEDLAEILQKLN")
3.28
>>> observed_measurement("DARPin #43 (designed binder) MRGSHHHHHHGSDLGKKLLEAARAGQDDEVRILMANGADVNAKYEDGLTPLHLAAFYGHLEIVEVLLKHGADVNATDAWGHTPLHLAAYYGHLEIVEVLLKYGADVNTHDKEGMTALHLAALTGHLEIVEVLLKNGADVNAQDKFGKTAFDISIDNGNEDLAEILQKLN")
0.071
>>> observed_measurement("DARPin #41 (designed binder) MRGSHHHHHHGSDLGKKLLEAARAGQDDEVRILMANGADVNAKYEDGLTPLHLAAFYGHLEIVEVLLRHGADVNATDAWGHTPLHLAAYLGHLEIVEVLLKYGADVNAEDTEGYTPLHLAAMDGHLEIIEVLLKHGADVNAQDKFGKTAFDISIDNGNEDLAEILQKLN")
0.113
